The values you see were collected from ChEMBL document CHEMBL1130387.

Reported IC50 values are given for each entry in this list.
# ASSAY TARGET: Endothelin receptor type B (Rattus norvegicus, UniProt P21451)
# Sequence (P21451 whole entry): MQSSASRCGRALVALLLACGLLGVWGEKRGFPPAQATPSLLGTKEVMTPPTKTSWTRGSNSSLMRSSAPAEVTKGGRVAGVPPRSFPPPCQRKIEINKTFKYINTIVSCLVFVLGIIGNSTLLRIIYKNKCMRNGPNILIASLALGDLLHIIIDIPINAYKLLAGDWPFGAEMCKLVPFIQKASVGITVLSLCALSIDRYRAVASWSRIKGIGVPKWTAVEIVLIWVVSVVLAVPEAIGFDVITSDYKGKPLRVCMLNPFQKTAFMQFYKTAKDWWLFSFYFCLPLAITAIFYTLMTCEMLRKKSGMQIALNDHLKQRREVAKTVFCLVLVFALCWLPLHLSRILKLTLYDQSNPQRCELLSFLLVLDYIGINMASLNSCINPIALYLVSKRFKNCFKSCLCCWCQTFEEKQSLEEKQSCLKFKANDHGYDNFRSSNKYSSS
# ASSAY PROTOCOL: Inhibition of binding to Endothelin B receptor of rat cerebellar membranes.
Square brackets hold non-standard residues; d marks the D form. Peptide text beside a SMILES is read from it. NMeDip = CN[C@H](C(=O)O)C(c1ccccc1)c1ccccc1; NMeW = CN[C@@H](Cc1c[nH]c2ccccc12)C(=O)O; Dip = N[C@H](C(=O)O)C(c1ccccc1)c1ccccc1
MEASURED ATTRIBUTE: IC50 (µM)

>>> endpoint_value("CC[C@H](C)[C@H](NC(=O)[C@H](CC(=O)O)NC(=O)[C@H](CC(C)C)NC(=O)[C@@H](NC(C)=O)C(c1ccccc1)c1ccccc1)C(=O)N[C@H](C(=O)N(C)[C@@H](Cc1c[nH]c2ccccc12)C(=O)O)[C@@H](C)CC (Ac-[Dip]LDII[NMeW]-OH)")
11
>>> endpoint_value("CC[C@H](C)[C@H](NC(=O)[C@H](CC(=O)O)NC(=O)[C@H](CC(C)C)NC(=O)[C@H](C(c1ccccc1)c1ccccc1)N(C)C(C)=O)C(=O)N[C@H](C(=O)N[C@@H](Cc1c[nH]c2ccccc12)C(=O)O)[C@@H](C)CC (Ac-[NMeDip]LDIIW-OH)")
8

----------
# Permeability (10e4*cm min-1) values compiled below
# Test system: Caco-2
# ASSAY PROTOCOL: Permeability in Caco-2 Cell monolayers for the compound
# Type: functional, cell-based
# MEASUREMENT PARAMETERS: Homo sapiens
Numbered stars: 1 amine (or outer) side, 2 acyl side, 3 side chain; on linkers, the order of the positions; unused ones are H or OH. Square brackets hold non-standard residues; d marks the D form. Peptide text beside a SMILES is read from it. X2 = O=C([C@@H](N[*:1])C1c2ccccc2CCc2ccccc21)[*:2]; Dip = N[C@H](C(=O)O)C(c1ccccc1)c1ccccc1; NMeI = CC[C@H](C)[C@H](NC)C(=O)O
MEASURED ATTRIBUTE: Permeability (10e4*cm min-1)

>>> endpoint_value("CC[C@H](C)[C@H](NC(=O)[C@H](CC(=O)O)NC(=O)[C@H](CC(C)C)NC(=O)[C@@H](NC(C)=O)C(c1ccccc1)c1ccccc1)C(=O)N(C)[C@H](C(=O)N[C@@H](Cc1c[nH]c2ccccc12)C(=O)O)[C@@H](C)CC (Ac-[Dip]LDI[NMeI]W-OH)")
2
>>> endpoint_value("CC[C@H](C)[C@H](NC(=O)[C@H](CC(=O)O)NC(=O)[C@H](CC(C)C)NC(=O)[C@@H](NC(C)=O)C(c1ccccc1)c1ccccc1)C(=O)N[C@H](C(=O)N[C@@H](Cc1c[nH]c2ccccc12)C(=O)O)[C@@H](C)CC (Ac-[Dip]LDIIW-OH)")
2
>>> endpoint_value("CC[C@H](C)[C@H](NC(=O)[C@H](CC(=O)O)NC(=O)[C@H](CC(C)C)NC(=O)[C@@H](NC(C)=O)C1c2ccccc2CCc2ccccc21)C(=O)N[C@H](C(=O)N[C@@H](Cc1c[nH]c2ccccc12)C(=O)O)[C@@H](C)CC (Ac-[X2]LDIIW-OH)")
4.7
>>> endpoint_value("CC[C@@H](C)[C@H](C(=O)N[C@@H](Cc1c[nH]c2ccccc12)C(=O)O)N(C)C(=O)[C@@H](NC(=O)[C@@H](CC(=O)O)NC(=O)[C@H](CC(C)C)NC(=O)[C@H](NC(C)=O)C1c2ccccc2CCc2ccccc21)[C@@H](C)CC")
6.3
